- procedureText: S16 Schwann cell PMP22 intronic element firefly luciferase assay (AID 624032); also: nearly all actives have a fitted effect of over 30% in size
- protocolConditions: S16 rat Schwann cells, PMP22 element FLuc, 24 h; series mostly up to 57.5 µM
Inconclusive results are not listed. Calls of active or inactive are those of the source. Calls follow the shape of the dose curve; as a rule, active = well fitted inhibition curve with a large enough effect; inconclusive = small, poorly fitted or top-dose-only effect; inactive = no such curve, though single readings can be large or run the other way.
Write down the outcome that applies. Available outcomes: yes (1) = active, no (0) = inactive

Would you please look over these solved cases?
CN1C(CCl)Nc2cc(Cl)c(S(N)(=O)=O)cc2S1(=O)=O (configuration not stated) : yes (1)
CC(=O)Oc1ccc(C(=C2CCCCC2)c2ccc(OC(C)=O)cc2)cc1 : no (0)
O=C(Nc1ccc(Cl)c(Cl)c1)C1CC1 : no (0)
CC(=O)N(O)CCCCCNC(=O)CCC(=O)N(O)CCCCCNC(=O)CCC(=O)N(O)CCCCCN : no (0)
COCc1c(C(C)C)nc(C(C)C)c(/C=C/[C@@H](O)C[C@@H](O)CC(=O)O)c1-c1ccc(F)cc1 : yes (1)

// switching to the query compound
-- ask Lab log entry: `C[N+]1(CCCCC[N+]2(C)CCCC2)CCCC1` — outcome as called in the assay?
-- reply no (0)
